Observed log10(IC50) values for Serine/threonine-protein kinase Chk1 (Homo sapiens, UniProt O14757) are listed in what follows.
assay metric: log10(IC50) (log10 of the value in µM)

> print(dat)
                     molecular.string  assay.metric  observed.value
1     c1cncc(Nc2cc(NCC3CCNCC3)ncn2)c1   log10(IC50)            2.09
2     NCC1CCN(c2cc(Nc3cnccn3)ncn2)CC1   log10(IC50)            1.34
3  NCC1CCN(c2ncnc3[nH]c4cnccc4c23)CC1   log10(IC50)           -0.54
4   NC1CCN(c2ncnc3[nH]c4cnccc4c23)CC1   log10(IC50)           -0.17
5         NCCCNc1ncnc2[nH]c3cnccc3c12   log10(IC50)            0.23
